Where do these numbers come from? They come from patent US20030068675.

Tested target: T1, ZFP SBS#1089 (synthetic)
T1 chain: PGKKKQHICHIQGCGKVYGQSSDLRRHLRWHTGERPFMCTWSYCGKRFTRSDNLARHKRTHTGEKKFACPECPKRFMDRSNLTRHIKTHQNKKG
Experiment: EMSA
Condition: tags: MBP fusion
Measurement kind: pKd
One number for each entry, as −log10 of the molar value.

Task: Provide one value: measured pKd of GACGAGGCT (dsDNA) DNA 1: GACGAGGCT DNA 2: AGCCTCGTC
Result: 9.77
